Where do these numbers come from? They come from patent US20250027068.

Property: Enzyme Activity Endpoint Assay (purified): scIgG; scope: individual proteins
Target: pooled human IgG
Write down the numeric answer in ng/µL and omit the unit.

input: Quick one: give measured Enzyme Activity Endpoint Assay (purified): scIgG for PRT-68 (protein) MANQEIRYSEVTPYHVTSVWTKGVTPPANFTQGEDVFHAPYVANQGWYDITKTFNGKDDLLCGAATAGNMLHWWFDQNKDQIKRYLEEHPEKQKINFNGEQMFDVKEAIDTKNHQLDSKLFEYFKEKAFPYLSTKHLGVFPDHVIDMFINGYRLSLTNHGPTPVKEGSKDPRGGIFDDVFTRGDQSKLLTSRHDFKEKNLKEISDLIKKELTEGKALGLSHTYANVRINHVINLWGADFDSNGNLKAIYVTDSDSNASIGMKKYFVGVNSAGKVAISAKEIKEDNIGAQVLGLFTLSTGQDSWNQTN
output: 16

input: Supply recorded Enzyme Activity Endpoint Assay (purified): scIgG for PRT-111 (protein) MRNATEAYAKEVPHQITSVWTKGVTPPTPEQFRYNNEDVFHAPYLAHQGWYDITKTFNGKDNLLCGAATAGNMLHWWFDQNKTEIEAYLKKHPEKQKIIFNNQELFDLKAAIDTKDSQTNSQLFNYFRDKAFPNLSARQLGVMPDLVLDMFINGYYLNVFKTQSTDVNRPYQDKDKRGGIFDAVFTRGDQTTLLTNRHDLKNKGLNDISTLIKQELTEGKALALSHTYANVSISHVINLWGADFNAEGNLEAIYVTDSDANASIGMKKYFVGINSAGHVAISAKKIEGENIGAQVLGLFTLSSGKDIWQKLS here.
output: 0

input: For the protein PRT-274 (protein) MVTSVWTKGVTPPTDFIYGEDVLHAPYKAGQGWYDITKTFNGKDNLLCGAATAGNMLHWWFDQNKEQIENYLKKHPEKQKIIFNNQELFDLKAAIDTKDSQLDSKLFDYFKEKAFPNLSTKHLGVFPDHVIDMFINGYRLSLLNHGPTPVKRGSKDKRGGIFDAVFTRGVQSKLLTNRHDLKNKTLKEISDLIKQELTEGKALGISHTYANVRINHVINLWGADFDAEGNLEAIYVTDSDTNPSIGMKKYFVGVNSSGKVAISAKEIEEDNIGAQVLGLFTLSTGQDIWNQTN , give its measured Enzyme Activity Endpoint Assay (purified): scIgG value.
output: 0

Please examine the following record next.
input: Annotate the protein PRT-58 (protein) MANQEIRYSEVTPYHVTSVWTKGVTPPANFTQGEDVFHAPYVANQGWYDINKTFNGKDDLLCGAATAGNMLHWWFDQNKEYIDRYLKEHPEKQKINFNGEQMFDVKEAIDTKNHQLDSKLFEYFKEKAFPYLSTKHLGVFPDLVLDMFINGYRLSLTNHGPTPVKEGSKDPRGGFFDDVFTRGDQSKLLTSRHDFKEKNLKEISDLIKKELTEGKALGLSHTYANVRINHVINLWGADFDSNGNLKAIYVTDSDSNASIGMKKYFVGVNSAGKVAISAKEIKEDNIGAQVLGLFTLSTGQDSWNQTN with its measured Enzyme Activity Endpoint Assay (purified): scIgG.
output: 1
